tgt: T1, Human CD3eg linker (human)
T1 construct: Single chain: epsilon and gamma subunits of human CD3 joined by a 29-mer linker, Flag-tag at the C-terminus; also called recombinant human CD3
T1 chain: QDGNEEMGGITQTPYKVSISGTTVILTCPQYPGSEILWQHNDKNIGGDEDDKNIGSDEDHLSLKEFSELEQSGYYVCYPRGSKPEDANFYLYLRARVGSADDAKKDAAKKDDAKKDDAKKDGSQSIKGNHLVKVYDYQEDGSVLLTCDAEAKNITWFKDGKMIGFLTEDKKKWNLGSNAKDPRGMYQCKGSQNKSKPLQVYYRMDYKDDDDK
experimental.protocol: Biacore SPR, vs template H183/L072
Below, each entry is listed with its recorded fold change of affinity.
Express it in fold; write the number only.

H183/L072 VH H96P (antibody, name in Kabat numbering, V domains shown) VH: QVQLVESGGGLVQPGRSLRLSCAASGFTFSNAWMHWVRQAPGKGLEWVAQIKDKGNAYAAYYAPSVKGRFTISRDDSKNSIYLQMNSLKTEDTAVYYCHYVPYASASTVLPAFGVDAWGQGTTVTVSS VL: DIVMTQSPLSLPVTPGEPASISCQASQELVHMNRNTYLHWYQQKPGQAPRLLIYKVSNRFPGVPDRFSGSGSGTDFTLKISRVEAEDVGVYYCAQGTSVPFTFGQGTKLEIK : 0

Read the next record carefully.
Q. Tell me the measured fold change of affinity of H183/L072 VH F27I (antibody, name in Kabat numbering, V domains shown) VH: QVQLVESGGGLVQPGRSLRLSCAASGITFSNAWMHWVRQAPGKGLEWVAQIKDKGNAYAAYYAPSVKGRFTISRDDSKNSIYLQMNSLKTEDTAVYYCHYVHYASASTVLPAFGVDAWGQGTTVTVSS VL: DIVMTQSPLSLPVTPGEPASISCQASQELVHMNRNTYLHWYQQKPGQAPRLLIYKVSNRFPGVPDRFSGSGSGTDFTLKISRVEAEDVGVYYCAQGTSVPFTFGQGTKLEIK , please.
A. 0.6
